Recorded values, source paper PMC8669712.

- Tested on: hepatocytes from wild-type mice
- assayInfo: Oil Red O lipid accumulation in hepatocytes from wild-type mice
- Type: cell-based, mouse
- testConditions: Mus musculus, Hepatocyte, 48 h, hepatocytes from wild-type mice, co-incubation with T0901317 5 × 10^–6 M, read-out: EC50 for suppression of LXR-mediated lipid accumulation
quantityName: EC50 (nM)
Output spec: scalar in nM, unitless text.

query: Annotate the compound CCCCc1cc2c(=O)cc(C(=O)O)[nH]c2c2c(=O)cc(C(=O)O)[nH]c12 with its measured EC50.
result: 78.7

---

- target: mouse GPR35 (Mus musculus, UniProt Q9ES90)
- Sequence (Q9ES90 whole entry): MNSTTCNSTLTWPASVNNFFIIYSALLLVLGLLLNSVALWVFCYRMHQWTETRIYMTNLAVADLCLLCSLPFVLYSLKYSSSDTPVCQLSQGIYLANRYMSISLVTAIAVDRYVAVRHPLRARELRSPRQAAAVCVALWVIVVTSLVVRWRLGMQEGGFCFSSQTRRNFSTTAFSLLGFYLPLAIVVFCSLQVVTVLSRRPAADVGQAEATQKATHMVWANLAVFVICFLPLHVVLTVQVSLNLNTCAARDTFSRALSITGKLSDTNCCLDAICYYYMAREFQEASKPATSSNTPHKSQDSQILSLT
- assayInfo: β-arrestin-based interaction assay, agonist potency at mouse GPR35
- Format: cell-based
quantityName: EC50 (nM)
Output spec: scalar in nM, unitless text.

query: Annotate the molecule CCCOc1ccccc1-c1nc2nn[nH]c2c(=O)[nH]1 [zaprinast] with its measured EC50.
result: 661

---

- target: mouse GPR35 (Mus musculus)
- assayInfo: β-arrestin-based interaction assay, agonist potency at mouse GPR35
- Assay type: cell-based
- testConditions: read-out: EC50 at the mouse GPR35
pEC50: −log10 of the molar value.
quantityName: pEC50

query: Fill in: pEC50 on mouse GPR35 (Mus musculus), entry CCCCc1cc2c(=O)cc(C(=O)O)[nH]c2c2c(=O)cc(C(=O)O)[nH]c12
result: > 7.00

---

- Test system: HepG2 cells
- assayInfo: Oil Red O staining of LXR (T0901317)-induced lipid accumulation in HepG2 cells
- Assay type: cell-based, human
- testConditions: Homo sapiens, co-incubation with T0901317 4 × 10^–6 M, 48 h, Oil Red O, read-out: EC50 for reduction in the lipid accumulation induced by T0901317
quantityName: EC50 (nM)
Output spec: scalar in nM, unitless text.

query: Fill in: EC50 on HepG2 cells, entry N#Cc1cc(NC(=O)C(=O)O)c(Cl)c(NC(=O)C(=O)O)c1 [lodoxamide]
result: 95
